- TESTED SYSTEM: human sphingosine-1-phosphate receptor 1 (S1P1) (Homo sapiens)
- Sequence (P21453 whole entry): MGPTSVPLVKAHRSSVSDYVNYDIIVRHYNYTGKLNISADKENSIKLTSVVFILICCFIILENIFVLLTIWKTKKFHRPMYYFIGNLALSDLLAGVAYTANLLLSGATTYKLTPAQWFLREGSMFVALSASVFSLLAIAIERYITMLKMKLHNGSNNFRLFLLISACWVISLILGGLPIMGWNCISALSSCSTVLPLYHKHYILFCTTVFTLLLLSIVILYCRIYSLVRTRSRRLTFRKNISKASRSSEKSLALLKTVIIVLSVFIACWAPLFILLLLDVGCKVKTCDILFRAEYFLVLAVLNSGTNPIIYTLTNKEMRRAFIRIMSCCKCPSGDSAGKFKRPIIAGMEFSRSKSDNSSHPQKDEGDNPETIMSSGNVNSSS
- Sequence (P32121 whole entry partner): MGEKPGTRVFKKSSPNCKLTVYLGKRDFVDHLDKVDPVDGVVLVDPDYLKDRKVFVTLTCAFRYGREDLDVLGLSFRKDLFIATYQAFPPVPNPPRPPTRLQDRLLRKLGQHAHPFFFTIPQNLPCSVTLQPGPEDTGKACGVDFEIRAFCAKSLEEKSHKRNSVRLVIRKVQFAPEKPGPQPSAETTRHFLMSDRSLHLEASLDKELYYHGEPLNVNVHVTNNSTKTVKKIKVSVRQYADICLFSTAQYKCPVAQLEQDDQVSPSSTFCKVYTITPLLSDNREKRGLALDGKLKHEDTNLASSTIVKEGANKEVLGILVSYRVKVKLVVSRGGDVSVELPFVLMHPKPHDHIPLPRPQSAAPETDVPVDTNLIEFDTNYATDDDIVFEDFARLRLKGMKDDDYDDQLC
- ASSAY COMMENT: β-Arrestin2 recruitment assay (PathHunter), S1P1 CHO-K1 cells
- Type: cell-based
- RUN PARAMETERS: β-arrestin2 recruitment; potency; read-out: hS1P1 B-arrestin2 pEC50 (converted)
VALUE KIND: EC50

INSERT INTO results (molecule, tested_system, value_reported) VALUES
  ('COc1ccc(-c2noc(-c3ccc4c(c3)nnn4C(C)C)n2)c(C)c1', 'human sphingosine-1-phosphate receptor 1 (S1P1) (Homo sapiens)', '< 10 µM'),
  ('CCC1(CC)CC(=O)c2cc(-c3nc(-c4cccc(Cl)c4)no3)ccc2O1', 'human sphingosine-1-phosphate receptor 1 (S1P1) (Homo sapiens)', '< 10 µM'),
  ('CC(C)n1nnc2cc(-c3noc(-c4cccc(F)c4)n3)ccc21', 'human sphingosine-1-phosphate receptor 1 (S1P1) (Homo sapiens)', '> 10 µM'),
  ('CC(C)n1nnc2cc(-c3noc(C45CC6CC(CC(C6)C4)C5)n3)ccc21', 'human sphingosine-1-phosphate receptor 1 (S1P1) (Homo sapiens)', '> 10 µM'),
  ('CCC1(CC)CC(=O)c2cc(-c3nc(-c4cncc(OC)c4)no3)ccc2O1', 'human sphingosine-1-phosphate receptor 1 (S1P1) (Homo sapiens)', '> 10 µM'),
  ('CCCC1(CCC)CC(=O)c2cc(-c3nc(-c4cccnc4)no3)ccc2O1', 'human sphingosine-1-phosphate receptor 1 (S1P1) (Homo sapiens)', '> 10 µM'),
  ('Cc1nc(-c2ccccc2)oc1-c1cnc2c(c1)CC(=O)N2', 'human sphingosine-1-phosphate receptor 1 (S1P1) (Homo sapiens)', '> 10 µM'),
  ('CC(C)n1nnc2cc(-c3nsc(-c4ccccc4O)n3)ccc21', 'human sphingosine-1-phosphate receptor 1 (S1P1) (Homo sapiens)', '< 10 µM'),
  ('COc1ccccc1-c1noc(-c2ccc3c(cnn3C(C)C)c2)n1', 'human sphingosine-1-phosphate receptor 1 (S1P1) (Homo sapiens)', '< 10 µM'),
  ('CC(C)n1nnc2cc(-c3nc(-c4cccnc4)no3)ccc21', 'human sphingosine-1-phosphate receptor 1 (S1P1) (Homo sapiens)', '> 10 µM'),
  ('CCC1(CC)CC(=O)c2cc(-c3nnc(-c4ccccc4OC)o3)ccc2O1', 'human sphingosine-1-phosphate receptor 1 (S1P1) (Homo sapiens)', '> 10 µM'),
  ('Cc1ccc(-c2nc(-c3ccc4c(c3)nnn4C3CCCC3)no2)cc1', 'human sphingosine-1-phosphate receptor 1 (S1P1) (Homo sapiens)', '> 10 µM'),
  ('COc1cccc(-c2nc(-c3ccc4[nH]ccc4c3)ns2)c1', 'human sphingosine-1-phosphate receptor 1 (S1P1) (Homo sapiens)', '> 10 µM'),
  ('CC(C)n1nnc2cc(-c3noc(-c4ccccc4Br)n3)ccc21', 'human sphingosine-1-phosphate receptor 1 (S1P1) (Homo sapiens)', '< 10 µM'),
  ('COc1ccccc1-c1nnc(-c2ccc3c(c2)nnn3C(C)C)o1', 'human sphingosine-1-phosphate receptor 1 (S1P1) (Homo sapiens)', '> 10 µM'),
  ('CC(C)C(c1ccccc1)c1noc(-c2ccc3c(c2)nnn3C(C)C)n1 (stereo not shown)', 'human sphingosine-1-phosphate receptor 1 (S1P1) (Homo sapiens)', '> 10 µM'),
  ('CSc1ccccc1-c1nc(-c2ccc3c(c2)nnn3C2CCCC2)no1', 'human sphingosine-1-phosphate receptor 1 (S1P1) (Homo sapiens)', '< 10 µM'),
  ('Cc1cnc(-c2nc(-c3ccc4c(c3)nnn4C(C)C)no2)cn1', 'human sphingosine-1-phosphate receptor 1 (S1P1) (Homo sapiens)', '> 10 µM'),
  ('Cc1ccccc1C(C)c1noc(-c2ccc3c(c2)nnn3CC(C)C)n1 (stereo not shown)', 'human sphingosine-1-phosphate receptor 1 (S1P1) (Homo sapiens)', '> 10 µM'),
  ('COc1cnc(-c2nc(-c3ccc4c(c3)nnn4C(C)C)no2)cn1', 'human sphingosine-1-phosphate receptor 1 (S1P1) (Homo sapiens)', '> 10 µM'),
  ('COc1cccc(F)c1-c1noc(-c2ccc3c(ccn3C(C)C)c2)n1', 'human sphingosine-1-phosphate receptor 1 (S1P1) (Homo sapiens)', '< 10 µM'),
  ('Cc1ccc(-c2noc(-c3ccc4c(c3)nnn4C3CCCC3)n2)cc1', 'human sphingosine-1-phosphate receptor 1 (S1P1) (Homo sapiens)', '> 10 µM'),
  ('CCC1(CC)CC(=O)c2cc(-c3nc(-c4ccc(N(C)C)cc4)no3)ccc2O1', 'human sphingosine-1-phosphate receptor 1 (S1P1) (Homo sapiens)', '> 10 µM'),
  ('COc1ccccc1-c1nnc(-c2ccc3c(c2)nnn3C(C)C)s1', 'human sphingosine-1-phosphate receptor 1 (S1P1) (Homo sapiens)', '< 10 µM'),
  ('Cc1ccccc1-c1noc(-c2ccc3c(c2)nnn3C2CCC2)n1', 'human sphingosine-1-phosphate receptor 1 (S1P1) (Homo sapiens)', '< 10 µM');
